Tested on: Avena fatua (AVEFA)
Test: Pre-emergence herbicidal action against AVEFA
Format: in vivo
Settings: 320 g/ha, visual scoring after about 3 weeks vs untreated controls
Form field: Pre-emergence action against AVEFA in % (one value per entry).

compound: C[C@H](NC(=O)COc1nn(-c2ccccn2)c(-c2cncc(F)c2)c1Br)C(=O)O
Pre-emergence action against AVEFA in % / %: 90

compound: Cc1cccnc1-n1nc(OCC(=O)O)c(Br)c1-c1ccc(F)nc1
Pre-emergence action against AVEFA in % / %: 100

compound: COCCOC(=O)[C@@H](C)Oc1nn(-c2ncccc2F)c(-c2ccc(F)nc2)c1Br
Pre-emergence action against AVEFA in % / %: 100

compound: CCOC(=O)COc1nn(-c2ncccc2C(F)(F)F)c(-c2cncc(F)c2)c1I
Pre-emergence action against AVEFA in % / %: 90

compound: COC(=O)CCOC(=O)C(C)Oc1nn(-c2ccccn2)c(-c2ccc(F)nc2)c1C(F)(F)F (centres unmarked)
Pre-emergence action against AVEFA in % / %: 90

compound: CCOC(=O)CCNC(=O)COc1nn(-c2ncccc2F)c(-c2ccc(OC)nc2)c1Br
Pre-emergence action against AVEFA in % / %: 90

compound: C[C@@H](Oc1nn(-c2ccccn2)c(-c2cncc(F)c2)c1Br)C(=O)O
Pre-emergence action against AVEFA in % / %: 100

compound: COC(=O)[C@H](C)COC(=O)COc1nn(-c2ccccn2)c(-c2cncc(F)c2)c1Cl [Example I-74]
Pre-emergence action against AVEFA in % / %: 80

###

Tested on: Zea mays (ZEAMX)
Format: in vivo
Settings: crop plant compatibility, 80 g/ha, effect vs untreated controls

compound: COC(=O)CNC(=O)COc1nn(-c2cccc(C)n2)c(-c2ccc(F)nc2)c1Br
Post-emergence action against ZEAMX in % [%]: 0
--
compound: COC(=O)C(C)COC(=O)COc1nn(-c2ncccc2F)c(-c2ccc(F)nc2)c1C1CC1 (centres unmarked)
Post-emergence action against ZEAMX in % [%]: 20
--
compound: COC(=O)COc1nn(-c2ncccc2F)c(-c2ccc(F)nc2)c1Br
Post-emergence action against ZEAMX in % [%]: 0
--
compound: CCOC(=O)C[S+]([O-])c1nn(-c2ccccn2)c(-c2cncc(F)c2)c1Cl (centres unmarked)
Post-emergence action against ZEAMX in % [%]: 0
--
compound: C[C@@H](Oc1nn(-c2ccccn2)c(-c2ccc(Cl)nc2)c1Br)C(=O)O
Post-emergence action against ZEAMX in % [%]: 10
--
compound: CS(=O)(=O)NC(=O)COc1nn(-c2ncccc2F)c(-c2ccc(F)nc2)c1Br
Post-emergence action against ZEAMX in % [%]: 10
--
compound: COC(=O)CCOC(=O)COc1nn(-c2ccnc(F)c2)c(-c2ccc(F)nc2)c1Br
Post-emergence action against ZEAMX in % [%]: 10
--
compound: COC(=O)COc1nn(-c2nc(F)ccc2F)c(-c2ccc(F)nc2)c1Br
Post-emergence action against ZEAMX in % [%]: 10
--
compound: C[C@@H](Oc1nn(-c2ccccn2)c(-c2ccc(F)nc2)c1Cl)C(=O)NCC(=O)O
Post-emergence action against ZEAMX in % [%]: 0
--
compound: CC(C)C(Oc1nn(-c2ccccn2)c(-c2ccc(F)nc2)c1Br)C(=O)O (centres unmarked)
Post-emergence action against ZEAMX in % [%]: 20
--
compound: COCCOC(=O)COc1nn(-c2ncccc2C(F)(F)F)c(-c2cncc(F)c2)c1Br
Post-emergence action against ZEAMX in % [%]: 20
--
compound: COC(=O)COc1nn(-c2ncccc2F)c(-c2cncc(F)c2)c1Br [Example I-49]
Post-emergence action against ZEAMX in % [%]: 10
--
compound: CCOC(=O)CNC(=O)COc1nn(-c2ncccc2F)c(-c2ccc(OC)nc2)c1Br
Post-emergence action against ZEAMX in % [%]: 20
--
compound: CCOC(=O)COc1nn(-c2ccc(Br)c(C)n2)c(-c2cncc(F)c2)c1Br
Post-emergence action against ZEAMX in % [%]: 10
--
compound: CC(C)=NOC(=O)COc1nn(-c2ncccc2F)c(-c2ccc(F)nc2)c1Br
Post-emergence action against ZEAMX in % [%]: 10
--
compound: COC(=O)CNC(=O)COc1nn(-c2ncccc2C(F)(F)F)c(-c2cncc(F)c2)c1Br
Post-emergence action against ZEAMX in % [%]: 0
--
compound: COC(=O)[C@@H](C)Oc1nn(-c2ncccc2Cl)c(-c2ccc(F)nc2)c1Br
Post-emergence action against ZEAMX in % [%]: 20
